System: E. coli HA165
Test: MIC, agar diffusion, E. coli HA165
Type: cell-based
Conditions: Escherichia coli, read-out: in vitro activities MIC
Excerpt: In vitro investigations have shown a relatively high potency of compounds of the invention against all bacteria including gram-positive and gram-negative strains (Staphylococci, Streptococci, Corynebacteriae, Mycobacteriae, Proteus, Propionibacterium, Pseudomonas, Neisseriae, E. coli) and fungal strains (Candida and Aspergillus). […] In addition, the studies of post-antibiotic effects point towards a strong bactericidal effect of the compounds of the invention. […]
parameter: MIC (µg/mL)
The response must be a number in µg/mL with no trailing unit.

Exam item: # return MIC for CC(C)CCCC(C(=O)NCCCCNCCCN)[C@H]1CC[C@@]2(C)C1CCC1[C@@]3(C)CC[C@@H](O)[C@@H](C)C3CC[C@@]12C (stereo partly drawn) , test system: E. coli HA165
Marked response: 8

Exam item: # return MIC for CC(=O)O[C@H]1C[C@@]2(C)C(CCC3[C@@]4(C)CC[C@@H](OS(=O)(=O)O)[C@@H](C)C4CC[C@@]32C)[C@@H]1[C@H](CCCC(C)C)C(=O)NCCCNCCCCNCCCN (stereo partly drawn) , test system: E. coli HA165
Marked response: 16

Exam item: # return MIC for CC(=O)O[C@H]1C[C@@]2(C)C(C[C@@H](O)C3[C@@]4(C)CC[C@@H](O)[C@@H](C)C4CC[C@@]32C)[C@@H]1[C@H](CCCC(C)C)C(=O)NCCCCNCCCN (stereo partly drawn) , test system: E. coli HA165
Marked response: 16

Exam item: # return MIC for CC(=O)O[C@H]1C[C@@]2(C)C(CCC3[C@@]4(C)CC[C@@H](O)[C@@H](C)C4CC[C@@]32C)[C@@H]1[C@H](CCCC(C)C)C(=O)NCCCNCCCN (stereo partly drawn) , test system: E. coli HA165
Marked response: 16

Exam item: # return MIC for CC(=O)O[C@H]1C[C@@]2(C)C(C[C@@H](O)C3[C@@]4(C)CC[C@@H](O)[C@@H](C)C4CC[C@@]32C)[C@@H]1[C@H](CCCC(C)C)C(=O)NCCCCNCCCNCCCCN (stereo partly drawn) , test system: E. coli HA165
Marked response: 16

Exam item: # return MIC for CC(=O)O[C@H]1C[C@@]2(C)C(C[C@@H](O)C3[C@@]4(C)CC[C@@H](OC(C)=O)[C@@H](C)C4CC[C@@]32C)[C@@H]1[C@H](CCCC(C)C)C(=O)NCCCNCCCCNCCCN (stereo partly drawn) , test system: E. coli HA165
Marked response: 4

Exam item: # return MIC for CC(C)CCCC(C(=O)NCCCNCCCNCCCN)[C@@H]1CC[C@@]2(C)C1C[C@@H](O)C1[C@@]3(C)CC[C@@H](O)[C@@H](C)C3CC[C@@]12C (stereo partly drawn) , test system: E. coli HA165
Marked response: 4

Exam item: # return MIC for CC(=O)O[C@H]1C[C@@]2(C)C(CCC3[C@@]4(C)CC[C@@H](OS(=O)(=O)O)[C@@H](C)C4CC[C@@]32C)[C@@H]1[C@H](CCCC(C)C)C(=O)NCCCNCCCNCCCN (stereo partly drawn) , test system: E. coli HA165
Marked response: 16

---

test system: Propionibacterium acnes FN33; experiment: MIC, agar diffusion, Propionibacterium acnes FN33; format: cell-based; conditions: Cutibacterium acnes, read-out: in vitro activities MIC
Give measured MIC for each item. Keep answers brief.
The response must be a number in µg/mL with no trailing unit.

Exam item: # return MIC for CC(=O)O[C@H]1C[C@@]2(C)C(C[C@@H](O)C3[C@@]4(C)CC[C@@H](O)[C@@H](C)C4CC[C@@]32C)[C@@H]1[C@H](CCCC(C)C)C(=O)NCCCCNCCCNCCCCN (stereo partly drawn) , test system: Propionibacterium acnes FN33
Marked response: 4

Exam item: # return MIC for CC(=O)O[C@H]1C[C@@]2(C)C(C[C@@H](O)C3[C@@]4(C)CC[C@@H](OC(C)=O)[C@@H](C)C4CC[C@@]32C)[C@@H]1[C@H](CCCC(C)C)C(=O)NCCCNCCCCNCCCN (stereo partly drawn) , test system: Propionibacterium acnes FN33
Marked response: 4

Exam item: # return MIC for CC(=O)O[C@H]1C[C@@]2(C)C(CCC3[C@@]4(C)CC[C@@H](OS(=O)(=O)O)[C@@H](C)C4CC[C@@]32C)[C@@H]1[C@H](CCCC(C)C)C(=O)NCCCNCCCNCCCN (stereo partly drawn) , test system: Propionibacterium acnes FN33
Marked response: 1

These measurements were taken from patent US20030087887A1.
